Cited source: paper PMC8424648

# experimental-system: mGlu5-Δ856 (Homo sapiens)
# Sequence (P41594 21-856 limits assumed, stated change not applied): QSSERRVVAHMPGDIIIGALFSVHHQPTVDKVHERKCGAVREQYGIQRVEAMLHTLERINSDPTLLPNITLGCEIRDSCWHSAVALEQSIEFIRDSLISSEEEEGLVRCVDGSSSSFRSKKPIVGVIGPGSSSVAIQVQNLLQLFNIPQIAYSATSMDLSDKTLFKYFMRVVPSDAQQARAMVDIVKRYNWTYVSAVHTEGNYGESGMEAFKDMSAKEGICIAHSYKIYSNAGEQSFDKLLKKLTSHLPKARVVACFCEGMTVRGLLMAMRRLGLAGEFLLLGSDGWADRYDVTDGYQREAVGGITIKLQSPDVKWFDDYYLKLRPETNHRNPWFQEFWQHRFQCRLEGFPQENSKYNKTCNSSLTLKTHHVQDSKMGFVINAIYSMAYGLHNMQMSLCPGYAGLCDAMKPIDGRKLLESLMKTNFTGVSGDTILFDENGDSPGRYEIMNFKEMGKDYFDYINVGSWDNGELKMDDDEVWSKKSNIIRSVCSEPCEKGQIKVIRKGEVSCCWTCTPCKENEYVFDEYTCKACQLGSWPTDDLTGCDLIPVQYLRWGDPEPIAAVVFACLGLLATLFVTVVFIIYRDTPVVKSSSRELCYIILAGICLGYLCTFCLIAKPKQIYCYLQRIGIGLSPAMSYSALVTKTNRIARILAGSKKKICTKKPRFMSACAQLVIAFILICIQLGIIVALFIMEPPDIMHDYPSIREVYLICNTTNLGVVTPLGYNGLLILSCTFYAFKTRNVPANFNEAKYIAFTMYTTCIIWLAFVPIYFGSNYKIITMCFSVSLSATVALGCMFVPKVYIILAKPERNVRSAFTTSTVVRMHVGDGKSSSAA
# assay-method-text: cell-based
# assay-setup: pEC50
readout: pEC50
Keep it numeric: pEC50 is minus log10 of the concentration in mol/L.

Reported pEC50, compound N[C@@H](Cn1oc(=O)[nH]c1=O)C(=O)O [Quisqualate, L-Quisqualic acid] : ____
7.05
